meta.source: the pKa sets of Baltruschat and Czodrowski (2020)

pKa values for the molecules below.
details: basic group
Write the value as a bare number.

Answered cases to consult:
Structure string	pKa
Oc1ccccc1CN1CCCC1	8.81
CCC(=O)C(CCN(C)C)(c1ccccc1)c1ccccc1	9.23
CN[C@@H]1[C@@H](C)[C@@H]1NC	9.13

Now consider the entry below.
Task item: Query: pKa; subject: CN1CCCCCCN(C)CCCCCC1
Reply: 9.24

* * *

details: basic group
Measure name: pKa

Answered cases to consult:
Structure string	pKa
Cc1n[nH]c2cc(N)ccc12	4
Nc1ccc(C(O)(c2ccccc2)c2ccc(N)cc2)cc1	5.83

Task item: Query: pKa; subject: Cc1ncc(C[NH3+])c(N)n1
Reply: 4

* * *

conditions: basic group
# if value of pKa reaches 5, tag Y; if it stays below, tag N

Compound	Qualitative label
COC(=O)C(C)(C)c1c[nH]c(CO)n1	Y

Task item: Given CC1=CCN2CC[C@@H](O)[C@@H]12 , state whether its pKa is at least 5.
Reply: Y

Task item: Same question, C(=C\c1nnnn1-c1ccccc1)/c1ccccc1 this time
Reply: N

Task item: Same question, Nc1c2ccccc2nc2c1ccc1c([N+](=O)[O-])cccc12 this time
Reply: Y

Task item: Same question, Cc1ccc2c(c1)CC(=O)CC2 this time
Reply: Y

Task item: Same question, CCN(CC)CCCNc1ccnc2ccccc12 this time
Reply: Y

Task item: Same question, c1ccc(-c2cccc(-c3cccc[nH+]3)n2)nc1 this time
Reply: N

Task item: Same question, CC1([NH3+])C[C@]1(C)N (stereo partly specified) this time
Reply: Y

Task item: Same question, CNc1ccccn1 this time
Reply: Y

Task item: Same question, Cc1nc(N(C)C)nc(OC(=O)N(C)C)c1C this time
Reply: N

Task item: Same question, N/C(CC[NH2+]c1ccccc1)=N\O this time
Reply: N

Task item: Same question, CN(C)CCCCC(=O)Oc1ccc([N+](=O)[O-])cc1 this time
Reply: Y

Task item: Same question, CC1/C(=N/O)C[C@@H]2N=C(c3ccccc3)O[C@@]13[C@@H]1OC(=O)[C@H](C)[C@H]1CC[C@]23C (stereo partly specified) this time
Reply: N

Task item: Same question, Nc1cccc(-c2nc3ccccc3s2)c1 this time
Reply: N

Task item: Same question, CN(C)c1ccc2ccccc2c1 this time
Reply: N

Task item: Same question, Cc1ccc(-c2cnc(-c3ccc(Cl)cc3)o2)cc1 this time
Reply: N

* * *

conditions: basic group
Measure name: pKa
Write the value as a bare number.

Compound	Value measured
CN(CO)c1ccccc1	3.72
CCN(CC)C/C(C)=N/[O-]	11
CNO	6.05

Task item: Query: pKa; subject: N=C(N)NOCC(=O)[O-]
Reply: 7.58

Task item: Same question, C=C(C)C(=O)OCCCN this time
Reply: 9.62

* * *

conditions: basic group
Measure name: pKa
Write the value as a bare number.

Structure string	pKa
Cc1nc2cc(N)ccc2[nH]1	6.95
CN(C)c1ccc(C(O)(c2ccccc2)c2ccc(N(C)C)cc2)cc1	6.93

Task item: Query: pKa; subject: Nc1cccnc1N
Reply: 6.84

* * *

conditions: acidic group
# if value of pKa reaches 8, tag yes (1); if it stays below, tag no (0)

Compound	Qualitative label
C[Si](C)(C)c1cccc(C(=O)O)c1	no (0)
[NH3+]CC(=O)NCC(=O)NCC(=O)N1CCC[C@H]1C(=O)O	no (0)

Query compound follows.
Task item: Given Sc1ccc(Br)cc1 , state whether its pKa is at least 8.
Reply: no (0)
